Hello, the source for this data is ChEMBL document CHEMBL5528027, in case you need it.

Reported MIC is given for each of the following compounds.
Tested on: Klebsiella pneumoniae
Test: Antibacterial activity against Klebsiella pneumoniae assessed as reduction in bacterial growth measured after 24 hrs by two-fold serial dilution method
Assay type: functional
Quick reminder: number only, in µg/mL, skip the unit.

Q: Consider the compound `CCN1CCN(C(=O)c2ccc3c(c2)OCCCO3)CC1` and give its recorded MIC.
A: 50

Q: Please give measured MIC of the following entry: `O=C(c1ccc2c(c1)OCCCO2)N1CCN(Cc2ccccc2)CC1`
A: 25

Q: Indicate its recorded MIC; the compound in question is `COC(=O)c1cccc(-c2ccc(NC(=O)c3ccc4c(c3)OCCCO4)cc2)c1`
A: 50

Q: Assign MIC to the following record: `CC(=O)N1CCC(NC(=O)c2ccc3c(c2)OCCCO3)CC1`
A: 3.13

Q: Answer with the recorded MIC for the compound listed here: `CC(=O)c1cccnc1NC(=O)c1ccc2c(c1)OCCCO2`
A: 25

----------
# IC50 at 24 h per entry
Assay: Cytotoxicity against mouse NIH3T3 cells incubated for 24 hrs by MTT analysis
Format: toxicity, cell-based

Study these solved cases before continuing.
| smiles.code | observed.measurement |
| --- | --- |
| COC(=O)c1c[nH]c2cc(NC(=O)c3ccc4c(c3)OCCCO4)ccc12 | 142 µM |
| O=C(Nc1ccc2cc[nH]c2c1)c1ccc2c(c1)OCCCO2 | 198 µM |
| O=C(Nc1cc(Cl)cc2cccnc12)c1ccc2c(c1)OCCCO2 | 115 µM |
| O=C(Nc1ccc(C(F)(F)F)cn1)c1ccc2c(c1)OCCCO2 | 204 µM |
| CN1CCN(C(=O)c2ccc3c(c2)OCCCO3)CC1 | 175 µM |
| CCOC(=O)c1cccnc1NC(=O)c1ccc2c(c1)OCCCO2 | 147 µM |

Q: Give me measured IC50 at 24 h, please, for this molecule: `COC(=O)c1cccc(-c2ccc(NC(=O)c3ccc4c(c3)OCCCO4)cc2)c1`
A: 161 µM

Q: Supply IC50 at 24 h value. Item: `CC(=O)c1cccnc1NC(=O)c1ccc2c(c1)OCCCO2`
A: 128 µM

Q: Please report the measured IC50 at 24 h for `CC(=O)N1CCC(NC(=O)c2ccc3c(c2)OCCCO3)CC1`
A: 132 µM

----------
Recorded IC50 values for a group of compounds are listed next.
Target sequence: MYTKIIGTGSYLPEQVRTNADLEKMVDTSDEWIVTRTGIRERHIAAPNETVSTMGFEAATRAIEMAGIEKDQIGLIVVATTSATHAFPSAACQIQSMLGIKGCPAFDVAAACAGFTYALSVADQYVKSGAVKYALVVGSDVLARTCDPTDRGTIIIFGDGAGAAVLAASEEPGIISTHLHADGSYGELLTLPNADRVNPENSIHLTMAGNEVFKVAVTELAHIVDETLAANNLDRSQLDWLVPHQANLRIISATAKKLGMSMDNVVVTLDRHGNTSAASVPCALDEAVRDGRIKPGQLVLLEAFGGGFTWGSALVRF
# unit: µM | format: bare number

Q: Check the records and state IC50 for `COC(=O)c1c[nH]c2cc(NC(=O)c3ccc4c(c3)OCCCO4)ccc12`
A: 2

Q: Answer with the recorded IC50 of `O=C(Nc1cc(Cl)cc2cccnc12)c1ccc2c(c1)OCCCO2` only.
A: 4.9

Q: Output measured IC50 for this item: `CCOC(=O)c1cccnc1NC(=O)c1ccc2c(c1)OCCCO2`
A: 26.8
